Granzyme B secretion, CD8 T cells, at 100 µM by entry:
- EXPERIMENTAL_SYSTEM: T1, IL10Rα/IL2Rγ receptor (human) (UniProt Q13651)
- T1 sequence (looked up) 1: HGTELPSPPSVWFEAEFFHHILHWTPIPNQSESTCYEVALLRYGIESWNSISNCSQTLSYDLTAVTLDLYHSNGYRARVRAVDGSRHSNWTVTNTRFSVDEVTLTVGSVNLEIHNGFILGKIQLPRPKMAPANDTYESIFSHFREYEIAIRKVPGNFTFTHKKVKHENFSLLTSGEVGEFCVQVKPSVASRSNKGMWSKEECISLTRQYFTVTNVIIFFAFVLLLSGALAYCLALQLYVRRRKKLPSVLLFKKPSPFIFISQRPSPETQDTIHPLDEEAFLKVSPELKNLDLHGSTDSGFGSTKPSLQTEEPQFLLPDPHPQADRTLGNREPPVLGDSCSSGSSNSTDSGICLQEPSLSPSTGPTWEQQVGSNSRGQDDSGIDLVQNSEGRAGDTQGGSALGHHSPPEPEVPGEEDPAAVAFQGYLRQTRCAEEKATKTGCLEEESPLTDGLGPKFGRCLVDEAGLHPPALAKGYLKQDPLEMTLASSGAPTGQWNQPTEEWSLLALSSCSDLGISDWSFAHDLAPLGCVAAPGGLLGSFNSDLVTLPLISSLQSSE
- T1 sequence (looked up) 2: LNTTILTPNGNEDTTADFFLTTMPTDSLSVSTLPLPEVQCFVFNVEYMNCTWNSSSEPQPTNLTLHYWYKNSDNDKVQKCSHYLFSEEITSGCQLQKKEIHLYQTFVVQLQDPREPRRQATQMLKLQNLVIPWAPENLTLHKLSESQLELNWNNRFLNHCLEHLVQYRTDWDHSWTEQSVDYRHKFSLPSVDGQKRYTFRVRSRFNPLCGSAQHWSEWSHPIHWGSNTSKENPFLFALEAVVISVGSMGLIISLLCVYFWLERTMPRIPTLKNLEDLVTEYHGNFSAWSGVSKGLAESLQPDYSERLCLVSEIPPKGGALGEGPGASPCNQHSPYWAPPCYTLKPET
- ASSAY_REMARKS: cell-based or functional assay
READOUT_NAME: Granzyme B secretion, CD8 T cells, at 100 µM (pg/mL)

>  <BINDER>
hIL10Ra_VHH14 - hIL2Rg_VHH19, linker GGGSGGGS, tag his (bispecific antibody, not shown: small tags and cut ends) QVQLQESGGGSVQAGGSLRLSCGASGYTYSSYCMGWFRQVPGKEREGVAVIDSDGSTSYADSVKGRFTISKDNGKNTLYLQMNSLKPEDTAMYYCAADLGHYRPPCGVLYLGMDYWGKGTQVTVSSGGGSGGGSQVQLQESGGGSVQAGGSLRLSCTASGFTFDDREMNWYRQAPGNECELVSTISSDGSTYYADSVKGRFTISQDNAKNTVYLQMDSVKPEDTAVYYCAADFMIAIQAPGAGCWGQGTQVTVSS

>  <UNIT_LABEL>
pg/mL

>  <ENDPOINT_VALUE>
78100

$$$$
>  <BINDER>
hIL10Ra_VHH14 - hIL2Rg_VHH19, linker …, tag his (bispecific antibody, not shown: small tags and cut ends) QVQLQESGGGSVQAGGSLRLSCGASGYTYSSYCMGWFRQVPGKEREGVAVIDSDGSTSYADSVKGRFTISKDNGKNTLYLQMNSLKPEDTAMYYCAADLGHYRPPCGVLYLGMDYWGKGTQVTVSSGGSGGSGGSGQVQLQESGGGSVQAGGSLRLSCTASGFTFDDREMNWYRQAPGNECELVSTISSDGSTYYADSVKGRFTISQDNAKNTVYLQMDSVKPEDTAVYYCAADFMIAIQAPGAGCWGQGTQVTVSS

>  <UNIT_LABEL>
pg/mL

>  <ENDPOINT_VALUE>
106000

$$$$
>  <BINDER>
hIL10Ra_VHH14 - hIL2Rg_VHH19, linker GGSGGS, tag his (bispecific antibody, not shown: small tags and cut ends) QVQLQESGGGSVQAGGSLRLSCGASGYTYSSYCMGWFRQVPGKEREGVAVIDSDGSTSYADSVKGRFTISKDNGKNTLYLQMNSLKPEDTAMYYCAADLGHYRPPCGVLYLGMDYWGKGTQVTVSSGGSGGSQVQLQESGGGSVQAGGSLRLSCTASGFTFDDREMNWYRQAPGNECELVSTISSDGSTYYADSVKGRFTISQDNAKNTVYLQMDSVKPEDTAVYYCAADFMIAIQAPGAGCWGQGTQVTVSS

>  <UNIT_LABEL>
pg/mL

>  <ENDPOINT_VALUE>
77900

$$$$
